# SGPT Increase - Index Value values compiled below
tested on: Hepatotoxicity; assay: FDA HLAED, serum glutamic pyruvic transaminase (SGPT) increase; details: human
Lab note: record just the number, no unit beside it.

For the compound shown here, CCN(CC)CCNC(=O)c1cc(Cl)c(N)cc1OC [METOCLOPRAMIDE] , give the reported SGPT Increase - Index Value.
0

Now consider CCOC(=O)Nc1ccc2c(c1)N(C(=O)CCN1CCOCC1)c1ccccc1S2 and answer again.
3.4

Also CC1COc2c(N3CCN(C)CC3)c(F)cc3c(=O)c(C(=O)O)cn1c23 (stereo not drawn) ?
2.1

----------
tested on: Hepatotoxicity; assay: FDA HLAED, alkaline phosphatase increase; conditions: human
experimental_readout: Alkaline Phosphatase Increase - Number of Reports

Worked cases, answers included:
{"columns": ["molecule", "recorded_measurement"],
 "data": [
  ["C[C@@H]1C[C@H]2[C@H]3[C@H]([C@@H](O)C[C@]2(C)[C@@]1(O)C(=O)CO)[C@@]1(C)C=CC(=O)C=C1C[C@H]3Cl [ALCLOMETASONE]", "< 4"],
  ["CN(C/C=C/C#CC(C)(C)C)Cc1cccc2ccccc12 [TERBINAFINE]", ">= 4"],
  ["COc1ccc(CC2c3cc(OC)c(OC)cc3CC[N+]2(C)CCC(=O)OCCCCCOC(=O)CC[N+]2(C)CCc3cc(OC)c(OC)cc3C2Cc2ccc(OC)c(OC)c2)cc1OC (stereo not drawn)", "< 4"],
  ["COc1ccc(OC)c(C(O)CNC(=O)CN)c1 (stereo not drawn) [MIDODRINE]", "< 4"],
  ["CN(C)CC/C=C1/c2ccccc2COc2ccc(CC(=O)O)cc21 [OLOPATADINE]", "< 4"]
]}

Now for another entry.
Return reported Alkaline Phosphatase Increase - Number of Reports; argument: CCCCC(=O)N(Cc1ccc(-c2ccccc2-c2nnn[nH]2)cc1)[C@H](C(=O)O)C(C)C
< 4
